meta.source: the supplement of paper PMC10883282

Measured relative viability, listed per entry.
System: RD-ES
test-name: relative viability vs DMSO control (72 h) (fraction); higher = more viable cells
recorded-conditions: 0.01372 µM
assay-endpoint: relative viability

compound_structure_string=Cc1cn(-c2cc(NC(=O)c3ccc(C)c(Nc4nccc(-c5cnccn5)n4)c3)cc(C(F)(F)F)c2)cn1 assay_endpoint="relative viability" reported_result=1
compound_structure_string=Cc1ccc(NC(=O)c2ccc(CN3CCN(C)CC3)cc2)cc1Nc1nccc(-c2cccnc2)n1 assay_endpoint="relative viability" reported_result=0.957
compound_structure_string=CN1CCN(CCOc2cc(OC3CCOCC3)c3c(Nc4c(Cl)ccc5c4OCO5)ncnc3c2)CC1 assay_endpoint="relative viability" reported_result=0.979
compound_structure_string=CCCS(=O)(=O)N[C@H]1C[C@@H](N(C)c2ncnc3[nH]ccc23)C1 assay_endpoint="relative viability" reported_result=1.02
compound_structure_string=CCN(CCCOc1ccc2c(Nc3cc(CC(=O)Nc4cccc(F)c4)[nH]n3)ncnc2c1)CCOP(=O)(O)O assay_endpoint="relative viability" reported_result=0.746
compound_structure_string=Cc1cccc(-c2[nH]c(CNc3ccccc3F)nc2-c2ccc3ncnn3c2)n1 assay_endpoint="relative viability" reported_result=0.97
compound_structure_string=COc1cc2c(Oc3ccc4[nH]c(C)cc4c3F)ccnc2cc1OCC1(N)CC1 assay_endpoint="relative viability" reported_result=0.98
compound_structure_string=N#CCC1(n2cc(-c3ncnc4[nH]ccc34)cn2)CN(C2CCN(C(=O)c3ccnc(C(F)(F)F)c3F)CC2)C1 assay_endpoint="relative viability" reported_result=0.927
